Test system: in vivo angiogenesis, blood vessel count
assay.comment: reduction of blood vessel formation in vivo – HTS, in vivo study (AID 732);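 further: zebrafish embryos dosed at one day post fertilization; 0% = reference inhibitor and 100% = plate mean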
test.parameters: active compounds read low;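 tested at 30 µM in the well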
Rule: vessel count % control below 90% gives 1.0. Equal to or above 90% gives 0.0.

The following compounds have reported results that may help.
• CC(C)NP(=O)(NC(C)C)OP(=O)(NC(C)C)NC(C)C = 0.0
• NC(=O)CN1CCCC1=O = 0.0
• CC[C@@]1(O)C(=O)OCc2c1cc1n(c2=O)Cc2cc3ccccc3nc2-1 = 1.0

# input Is 90% strictly greater than the compound's reported vessel count % control? compound: C=CCN1CCC2(C)c3cc(O)ccc3CC1C2C (stereo not drawn)
# output 0.0

# input "CCCC(=O)NCCc1c2n(c3ccc(OC)cc13)Cc1ccccc1-2" ?
# output 0.0

# input Cc1cccc(C2CN(C)CCc3c2cc(O)c(O)c3Cl)c1 (stereo not drawn) ?
# output 0.0

# input "C[C@@](Cc1ccc(O)c(O)c1)(NN)C(=O)O" ?
# output 0.0

# input CO/N=C(\C(=O)N[C@@H]1C(=O)N2C(C(=O)O)=C(COC(C)=O)CS[C@H]12)c1csc(N)n1 (stereo in doubt) ?
# output 0.0

----------
Tested on: in vivo angiogenesis, blood vessel count
assay.comment: reduction of blood vessel formation in vivo – HTS, in vivo study (AID 732)
test.parameters: active compounds read low;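 tested at 30 µM in the well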
property: vessel count % control (%)
Please give a number only; it is taken to be in %.

The following compounds have reported results that may help.
- CCN(CC)CC(=O)Nc1c(C)cccc1C: 73.7
- Cc1ccc(=O)n(-c2ccccc2)c1: 92.7
- Cc1cccc(/C=C/c2ccccc2)n1: 74.2
- CC(N)C1CCC(C(=O)Nc2ccncc2)CC1 (centres undefined): 111
- COc1cc(CNC(=O)CCCCCCC(C)C)ccc1O: 128
- CC(=O)[C@H]1CC[C@H]2[C@@H]3CCC4=CC(=O)CC[C@]4(C)[C@H]3CC[C@]12C: 102

Let us move to another entry and its vessel count % control.
# input Given the entry O=C1OC(=O)C2C3CCC(O3)C12 (centres undefined) , what vessel count % control was observed with in vivo angiogenesis, blood vessel count?
# output 111

----------
Tested on: in vivo angiogenesis, blood vessel count
assay.comment: reduction of blood vessel formation in vivo – HTS, in vivo study (AID 732)
test.parameters: active compounds read low;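 tested at 30 µM in the well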
property: vessel count % control (%)
Please give a number only; it is taken to be in %.

* CNCC[C@@H](Oc1ccc(C(F)(F)F)cc1)c1ccccc1 | 113
* Cc1ccccc1C(OCCN(C)C)c1ccccc1 (stereo not drawn) | 108
* CCCCCCCCCCCCCC(=O)O[C@@H]1[C@@H](C)[C@@]2(O)[C@@H](C=C(CO)C[C@@]3(O)C(=O)C(C)=C[C@@H]23)C2C(C)(C)[C@@]21OC(C)=O (stereo partly drawn) | 0
* Oc1ccc(Cn2cc[nH]c2=S)cc1 | 92.9
* NCCCCC(=O)O | 84.3

Let us move to another entry and its vessel count % control.
# input Item under review: CCC1(C2=NCCN2)Cc2ccccc2O1 (stereo not drawn) . Reported vessel count % control?
# output 68.5

----------
Tested on: in vivo angiogenesis, blood vessel count
assay.comment: reduction of blood vessel formation in vivo – HTS, in vivo study (AID 732)
test.parameters: active compounds read low;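 tested at 30 µM in the well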
# Lookup of reported vessel count % control keyed by entry
Please give a number only; it is taken to be in %.

The following molecules have reported results that may help.
- COc1ccc([C@@H]2Sc3ccccc3N(CCN(C)C)C(=O)[C@@H]2OC(C)=O)cc1: 107
- CC(N)Cc1c[nH]c2ccc(OCc3cccs3)cc12 (stereo not drawn): 107
- NS(=O)(=O)c1cc2c(cc1Cl)NCNS2(=O)=O: 103
- CC(=O)C(C)=O: 99.7

# input Given the entry "CC1(C)CCC=[N+]1[O-]" , what vessel count % control was observed with in vivo angiogenesis, blood vessel count?
# output 85.7

----------
System: in vivo angiogenesis, blood vessel count
assay.comment: reduction of blood vessel formation in vivo – HTS, in vivo study (AID 732)
test.parameters: active compounds read low;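 tested at 30 µM in the well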
Calls of active or inactive are those of the source. The rule behind the calls is not given here.
# Lookup of reported vessel count % control keyed by entry

• Nc1ncnc2c1c(-c1ccc(Oc3ccccc3)cc1)cn2C1CCCC1 = 77.9% (inactive)
• N[C@@H](Cc1ccc(F)cc1)C(=O)O = 108% (inactive)
• O=c1ccc2c(OCCCCc3ccccc3)c3ccoc3cc2o1 = 76.3% (inactive)
• CN[C@@H](C)[C@H](O)c1ccccc1 = 91.4% (inactive)
• NC(=NCCC[C@H](N)C(=O)O)N[N+](=O)[O-] = 96.2% (inactive)
• Nc1nc2[nH]c(=O)cnc2c(=O)[nH]1 = 140% (inactive)
• NC(=O)c1cc[n+](CC2=C(C(=O)O)N3C(=O)[C@@H](NC(=O)[C@@H](c4ccccc4)S(=O)(=O)[O-])[C@H]3SC2)cc1 = 99.9% (inactive)
• C#C[C@]1(O)CC[C@H]2[C@@H]3CCC4=Cc5oncc5CC4(C)[C@H]3CCC21C (some centres not stated) = 118% (inactive)

# input Item under review: "C[C@]12CC[C@@H]3c4ccc(O)cc4CC[C@H]3[C@@H]1CC[C@@H]2O" . Reported vessel count % control?
# output 104% (inactive)

# input "OCc1cnc[nH]1" ?
# output 106% (inactive)

# input CC1CN(S(=O)(=O)c2cccc3cnccc23)CCN1 (configuration not stated) ?
# output 97.8% (inactive)

# input "CN1CCc2cc(NC(=O)Nc3cccnc3)ccc21" ?
# output 86.6% (inactive)

----------
# Lookup of reported vessel count % control keyed by entry
Test system: in vivo angiogenesis, blood vessel count
assay.comment: reduction of blood vessel formation in vivo – HTS, in vivo study (AID 732);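 further: zebrafish embryos dosed at one day post fertilization; 0% = reference inhibitor and 100% = plate mean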
test.parameters: active compounds read low;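 tested at 30 µM in the well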
The source made the active and inactive calls. The rule behind the calls is not given here.

The following compounds have reported results that may help.
* c1ccc2c(c1)OCC(C1=NCCN1)O2 (stereo unspecified) | 146% (inactive)
* CCCN(CCC)[C@@H]1CCc2cccc(O)c2C1 | 94.1% (inactive)
* N[C@@H](CCC(=O)N[C@H](CSN=O)C(=O)NCC(=O)O)C(=O)O | 97.4% (inactive)
* Brc1ccc([C@H]2CN3CCSC3=N2)cc1 | 94.7% (inactive)
* COc1cccc2c1[C@@H]1CN(CCCCn3c(=O)[nH]c4c(sc5ncc(-c6ccccc6)nc54)c3=O)C[C@@H]1CO2 | 87.9% (inactive)

# input Item under review: "C[C@@H](NCCc1ccc(O)cc1)[C@@H](O)c1ccc(O)cc1" . Reported vessel count % control?
# output 92.9% (inactive)

----------
Tested on: in vivo angiogenesis, blood vessel count
assay.comment: reduction of blood vessel formation in vivo – HTS, in vivo study (AID 732);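 further: zebrafish embryos dosed at one day post fertilization; 0% = reference inhibitor and 100% = plate mean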
test.parameters: active compounds read low;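 tested at 30 µM in the well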
property: vessel count % control (%)
Please give a number only; it is taken to be in %.

• O=C1CCC(c2ccc(-n3ccnc3)cc2)=NN1 = 86
• CC1OC1P(=O)(O)O (configuration not stated) = 102
• CCOC(=O)C1=C(C)NC(C)=C(C(=O)OC)C1c1cccc(Cl)c1Cl (configuration not stated) = 56
• CC[C@@H](CO)NC(=O)[C@@H]1C=C2c3cccc4c3c(cn4C)C[C@H]2N(C)C1 = 70.9
• C[N+]1(C)CCc2cc3c(cc2[C@H]1[C@@H]1OC(=O)c2c1ccc1c2OCO1)OCO3 = 85.4

# input Item under review: "COc1ccc2c(c1)/C(=C/c1cnc[nH]1)C(=O)N2" . Reported vessel count % control?
# output 73.2

# input "Cc1nc2ccccn2c(=O)c1CCN1CCC(C(=O)c2ccc(F)cc2)CC1" ?
# output 94.9

# input "CCCN(CCC)CCc1c[nH]c2ccc(C(N)=O)cc12" ?
# output 80.1

# input "Oc1ccc(/C=C/c2cc(O)cc(O)c2)cc1" ?
# output 100

# input COc1ccccc1N1CCN(CC(O)COc2cccc3ccccc23)CC1 (configuration not stated) ?
# output 91.2

# input "N.N.N.N.N.N.N.N.N.N.N.N.N.N.O.O.[Cl-].[Cl-].[Cl-].[Cl-].[Cl-].[Cl-].[Ru+4].[Ru+5].[Ru+5]" ?
# output 123

# input CN1CCN(C2Cc3ccccc3Sc3ccc(Cl)cc32)CC1 (configuration not stated) ?
# output 120

----------
Test system: in vivo angiogenesis, blood vessel count
assay.comment: reduction of blood vessel formation in vivo – HTS, in vivo study (AID 732);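 further: zebrafish embryos dosed at one day post fertilization; 0% = reference inhibitor and 100% = plate mean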
test.parameters: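 tested at 30 µM in the well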
The source made the active and inactive calls. The rule behind the calls is not given here.
Log the outcome using a class from active, inactive

# input Outcome? "CCCCC/C=C\C/C=C\C/C=C\C/C=C\CCCC(=O)NCC(=O)O"
# output inactive

meta.source: PubChem BioAssay AID732
